assayed-system: T1, chimeric human Bcl-2 (with the internal loop 51-91 removed and residues 35-50 replaced by residues 33-48 of … (human; mouse, UniProt P10415 1-34; Q64373 33-48; P10415 92-207)
T1 construct: also called recombinant Bcl-2; Bc1-2
T1 sequence (P10415 other isoform, or with tags, fused parts or gaps mutant limits assumed): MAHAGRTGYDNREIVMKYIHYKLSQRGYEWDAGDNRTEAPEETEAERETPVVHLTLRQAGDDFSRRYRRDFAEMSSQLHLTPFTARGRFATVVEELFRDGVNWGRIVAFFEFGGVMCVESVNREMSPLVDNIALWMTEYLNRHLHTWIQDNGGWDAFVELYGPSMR
test-details: fluorescence anisotropy of labeled Bax-BH3 against Bcl-2 concentration, single binding site model
pKd: −log10 of the molar value. No end group written: not given here.
parameter-measured: pKd

Consider the binder shown here: QDASTKKLSECLRRIGDELDSNMELQRMIAD (also: fluorescein label, position not given here, Bought from Genscript; also called Bax-BH3 peptide) [fluorescence-labeled peptide QDASTKKLSECLRRIGDELDSNMELQRMIAD corresponding to Bax-BH3] What is its recorded pKd?
~6.89
